ASSAY_METHOD_TEXT: Primary qHTS for delayed death inhibitors of the malarial parasite plastid, 96 hour incubation
CONDITION: P. falciparum luciferase reporter growth; series mostly up to 28.7 µM
The whole screen tested about 320,000 compounds, of which about 22,000 (6.9%) were called active. Another 27% or so got no clear call; they are omitted. The call rests on the fitted dose curve; in most records, active means well fitted inhibition curve with a large enough effect; inconclusive means small, poorly fitted or top-dose-only effect, or another doubt; inactive means no such curve, though single readings can be large or run the other way. The sample holds actives, similar compounds and a random draw of the others, so the mix is not that of the screen.
Your reply should match one of these outcome classes. active, inactive

MOLECULE	LABEL
O=C(CC(c1ccccc1)c1ccccc1)NCC(O)c1ccc([N+](=O)[O-])cc1 (configuration not stated)	inactive
NCCCCCC(=O)N/N=C/c1ccc2nccnc2c1	inactive
COc1ccc(C2CC(c3cccs3)=Nc3ccccc3S2)cc1OC (configuration not stated)	inactive
Cc1ccc(OCC(=O)N2CCN(S(=O)(=O)c3ccc(Cl)s3)CC2)cc1C	active

**Query** How was CCCN1C2CCCC1CC(NC(=O)c1cccc(OC)c1)C2 (configuration not stated) classified in this test?
**Result** inactive

**Query** Test call for this molecule, please: O=C(CN1CCN(S(=O)(=O)c2ccc(Cl)s2)CC1)N1CCCCC1
**Result** inactive

**Query** Write down the call the test reported for this molecule. Item: COc1ccc(C2CC(c3cccs3)=NN2C(=O)COC(=O)c2cc3ccccc3cc2O)cc1OC (configuration not stated)
**Result** inactive

**Query** Which result was noted for this molecule in the test: COc1ccc(CCNC(=O)c2nnc(CS(=O)(=O)c3ccccc3)o2)cc1OC
**Result** inactive

**Query** Hi, sorry to bother you, what did the test record for CC(OC(=O)CCC(=O)c1ccccc1)C(=O)Nc1ccc(F)cc1 (configuration not stated) ?
**Result** inactive

**Query** Hey, what did the test say about CCOc1ccccc1C(=O)NCc1ccco1 ?
**Result** inactive

**Query** Answer briefly: the call reported for O=C(Cc1ccc(-n2c(=O)[nH]c3ccccc3c2=O)cc1)N1CCN(c2cccc(Cl)c2)CC1 in this assay.
**Result** inactive

**Query** Field: outcome | Entry: CC(OC(=O)CCCOc1ccccc1)C(=O)Nc1ccc(Cl)cn1 (configuration not stated)
**Result** inactive
